Collected half-life at 1 µM values appear next to each entry.
assay: in vitro; settings: mouse, liver microsomes, t (1 / 2)
Description: DNDI: half life in mouse liver microsomes at a concentration of 1uM

Molecule: c1cc(-c2nc(CNC3CCCCCC3)co2)ccc1OC1CCCCC1
half-life at 1 µM: 78 min
//
Molecule: CCCCc1ccc(-c2nc(CN3CCN(C)CC3)co2)cc1
half-life at 1 µM: 27 min
//
Molecule: CCCCCOc1ccc(-c2nc(CNC[C@@H]3CC[C@H]4C[C@@H]3C4(C)C)co2)cc1
half-life at 1 µM: 12 min
//
Molecule: CCOc1ccc(-c2nc(CNC3[C@H]4C[C@@H]5C[C@@H](C[C@H]3C5)C4)co2)cc1 (stereo not given in full)
half-life at 1 µM: 8 min
//
Molecule: CC(C)(C)c1ccc(Oc2ncccc2/C(=N/O)Nc2cccc(F)c2)cc1
half-life at 1 µM: 23.7 min
//
Molecule: CCC(C)C(NCc1ccccc1OC)c1nc(-c2ccccc2)c(N2CCCCC2)o1 (stereo not given)
half-life at 1 µM: 4 min
//
Molecule: COc1cc(C)ccc1Oc1ncccc1/C(=N/O)NC1CCCCC1
half-life at 1 µM: 11 min
//
Molecule: Cc1cccc(CNC(c2ccccc2)c2nc(Cc3ccccc3)c(N3CCOCC3)o2)c1 (stereo not given)
half-life at 1 µM: 4 min
//
Molecule: Cc1ccc(/C(=N/O)Nc2cccc(F)c2)c(Oc2ccc(C(C)(C)C)cc2)n1
half-life at 1 µM: 26.8 min
//
Molecule: CCc1ccccc1N/C(=N\O)c1ccccc1-c1ccccc1
half-life at 1 µM: 4 min

----------
assay: DNDI: Lipophilicity measured in Chromatographic hydrophobicity index (CHI) assay, pH 7.4; format: physicochemical; details: buffer
Define the label as criterion met when chromatographic logD is strictly less than 4 and as criterion not met in all remaining cases.

Molecule: CC(C)(C)CN/C(=N\O)c1ccccc1-c1ccccc1
Category label: criterion not met
//
Molecule: COc1ccc(CNC(CCc2ccccc2)c2nc(Cc3ccccc3)c(N3CCCCC3)o2)cc1OC (configuration not stated)
Category label: criterion not met
//
Molecule: CC(C)(C)c1cc(N2CCNCC2)n2nc(-c3ccc(F)cc3)cc2n1
Category label: criterion not met
//
Molecule: COc1ccc(/C(=N/O)Nc2ccc(F)cc2)cc1
Category label: criterion met
//
Molecule: COc1ccccc1Oc1ncccc1/C(=N\O)NC1CCCCC1
Category label: criterion met
//
Molecule: Fc1cccc(-c2cc3nc(-c4ccccc4)cc(NCCCN4CCOCC4)n3n2)c1
Category label: criterion not met
//
Molecule: CCCCCC(C)NCc1coc(-c2cccc(Cl)c2)n1 (configuration not stated)
Category label: criterion not met
//
Molecule: CCCCc1ccc(-c2nc(CNCCN(C)C)co2)cc1
Category label: criterion not met
//
Molecule: CCCCCC(C)NCc1coc(-c2ccc(OCC(C)C)cc2)n1 (configuration not stated)
Category label: criterion not met
//
Molecule: CCc1ccccc1Oc1ncccc1/C(=N\O)NC1CCCCC1
Category label: criterion not met

----------
Collected recovery at 1 h, 3 µM values appear next to each entry.
molecular target: MDR1 (ABCB1) (Homo sapiens, UniProt P08183); assay: DNDI: % of compound recovered from apical to basolateral permeability assay in MDCK cells transfected with human MDR1 after 60 mins at a concentration of 3uM; format: ADME, cell-based, Canis lupus familiaris; conditions: dog
Sequence (P08183 whole entry): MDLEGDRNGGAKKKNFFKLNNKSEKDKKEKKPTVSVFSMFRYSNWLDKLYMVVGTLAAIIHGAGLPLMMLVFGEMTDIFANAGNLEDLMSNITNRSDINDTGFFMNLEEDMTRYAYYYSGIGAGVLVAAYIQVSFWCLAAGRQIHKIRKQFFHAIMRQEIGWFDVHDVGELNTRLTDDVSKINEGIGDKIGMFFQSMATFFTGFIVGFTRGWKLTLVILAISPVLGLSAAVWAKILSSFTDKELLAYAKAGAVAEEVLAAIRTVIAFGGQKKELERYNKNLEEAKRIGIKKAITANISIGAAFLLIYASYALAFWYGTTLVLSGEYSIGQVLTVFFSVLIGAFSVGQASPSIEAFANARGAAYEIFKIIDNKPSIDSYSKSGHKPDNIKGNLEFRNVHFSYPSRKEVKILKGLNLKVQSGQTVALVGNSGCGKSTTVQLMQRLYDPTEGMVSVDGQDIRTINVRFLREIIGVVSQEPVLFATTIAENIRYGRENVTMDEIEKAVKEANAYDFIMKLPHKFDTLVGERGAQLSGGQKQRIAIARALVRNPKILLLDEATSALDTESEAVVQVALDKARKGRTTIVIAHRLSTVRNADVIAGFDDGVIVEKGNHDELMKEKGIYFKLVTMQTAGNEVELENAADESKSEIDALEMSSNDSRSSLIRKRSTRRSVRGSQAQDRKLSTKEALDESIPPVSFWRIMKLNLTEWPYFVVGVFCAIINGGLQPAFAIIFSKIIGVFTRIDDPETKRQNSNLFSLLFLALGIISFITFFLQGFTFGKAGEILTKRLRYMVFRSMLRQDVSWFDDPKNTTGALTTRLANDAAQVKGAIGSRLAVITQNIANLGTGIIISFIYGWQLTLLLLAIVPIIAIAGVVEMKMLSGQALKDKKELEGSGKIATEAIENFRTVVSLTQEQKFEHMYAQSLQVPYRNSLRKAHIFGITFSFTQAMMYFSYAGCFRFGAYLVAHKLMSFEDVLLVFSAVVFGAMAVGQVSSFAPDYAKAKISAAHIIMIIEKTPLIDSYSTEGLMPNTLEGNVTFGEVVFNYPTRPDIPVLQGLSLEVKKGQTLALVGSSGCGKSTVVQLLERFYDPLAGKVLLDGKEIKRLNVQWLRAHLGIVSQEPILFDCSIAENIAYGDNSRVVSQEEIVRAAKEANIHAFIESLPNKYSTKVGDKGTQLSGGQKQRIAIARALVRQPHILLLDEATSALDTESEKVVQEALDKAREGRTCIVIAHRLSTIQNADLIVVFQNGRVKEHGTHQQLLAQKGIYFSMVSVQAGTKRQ

Molecule: CN(C)CCNc1cc(-c2ccccc2)nc2cc(-c3ccc(F)cc3)nn12
Unit text: %
recovery at 1 h, 3 µM: 100
--
Molecule: Cc1cc(NCCN(C)C)n2nc(-c3cccc(F)c3)cc2n1
Unit text: %
recovery at 1 h, 3 µM: 97
--
Molecule: CC(C)(C)c1cc(N2CCNCC2)n2nc(-c3ccc(F)cc3)cc2n1
Unit text: %
recovery at 1 h, 3 µM: 103
--
Molecule: Fc1cccc(-c2cc3nc(-c4ccccc4)cc(NCCCN4CCOCC4)n3n2)c1
Unit text: %
recovery at 1 h, 3 µM: 59
--
Molecule: Cc1cc(NCCCn2ccnc2)n2nc(-c3cccc(F)c3)cc2n1
Unit text: %
recovery at 1 h, 3 µM: 100
--
Molecule: Cc1cc(NCCCN2CCOCC2)n2nc(-c3cccc(F)c3)cc2n1
Unit text: %
recovery at 1 h, 3 µM: 91
--
Molecule: Cc1cc(N2CCNCC2)n2nc(-c3cccc(F)c3)cc2n1
Unit text: %
recovery at 1 h, 3 µM: 70.4
--
Molecule: CN(C)CCNc1nc(Oc2cccc3ccccc23)c2sccc2n1
Unit text: %
recovery at 1 h, 3 µM: 77.5
